molecular target: MAP4K4 (human) (UniProt O95819); experiment: radiometric filter-binding kinase assay, Kinase HotSpot; conditions: compound 0.5 µM; ATP 10 µM
Sequence (O95819 whole entry, looked up): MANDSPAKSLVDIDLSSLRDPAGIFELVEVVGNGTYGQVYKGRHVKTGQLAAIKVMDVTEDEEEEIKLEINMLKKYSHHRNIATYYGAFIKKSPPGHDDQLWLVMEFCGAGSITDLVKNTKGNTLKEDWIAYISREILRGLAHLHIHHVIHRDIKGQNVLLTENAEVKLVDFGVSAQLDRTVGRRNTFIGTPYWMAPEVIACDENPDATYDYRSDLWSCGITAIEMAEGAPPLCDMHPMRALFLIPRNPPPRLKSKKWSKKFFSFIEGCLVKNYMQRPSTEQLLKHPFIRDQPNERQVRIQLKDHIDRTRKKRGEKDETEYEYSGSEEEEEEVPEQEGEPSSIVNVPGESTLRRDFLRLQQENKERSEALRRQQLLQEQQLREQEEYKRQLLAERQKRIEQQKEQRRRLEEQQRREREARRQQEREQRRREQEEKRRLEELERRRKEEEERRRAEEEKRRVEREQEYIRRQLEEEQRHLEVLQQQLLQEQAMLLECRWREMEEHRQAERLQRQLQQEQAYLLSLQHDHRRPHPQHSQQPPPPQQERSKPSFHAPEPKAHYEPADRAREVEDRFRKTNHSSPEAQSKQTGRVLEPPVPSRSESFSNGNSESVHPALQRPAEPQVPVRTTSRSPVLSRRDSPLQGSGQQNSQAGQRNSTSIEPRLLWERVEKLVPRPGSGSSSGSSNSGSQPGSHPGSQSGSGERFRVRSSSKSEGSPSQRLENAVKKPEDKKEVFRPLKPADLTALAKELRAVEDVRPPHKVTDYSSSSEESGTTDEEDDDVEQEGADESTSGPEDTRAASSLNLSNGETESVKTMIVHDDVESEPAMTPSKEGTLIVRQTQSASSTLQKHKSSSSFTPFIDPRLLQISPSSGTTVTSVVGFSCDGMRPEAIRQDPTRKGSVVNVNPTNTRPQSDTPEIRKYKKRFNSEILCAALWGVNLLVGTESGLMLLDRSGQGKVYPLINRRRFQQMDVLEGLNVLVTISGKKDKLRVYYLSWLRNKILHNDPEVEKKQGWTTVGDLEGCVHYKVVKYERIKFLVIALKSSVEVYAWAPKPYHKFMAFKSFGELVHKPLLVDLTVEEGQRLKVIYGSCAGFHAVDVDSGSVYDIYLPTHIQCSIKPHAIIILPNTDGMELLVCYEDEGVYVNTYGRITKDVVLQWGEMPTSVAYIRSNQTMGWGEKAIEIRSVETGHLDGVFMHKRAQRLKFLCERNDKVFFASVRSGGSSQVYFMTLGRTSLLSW
Each entry below lists one item and its recorded residual activity value.
Report the figure in % without appending any unit label.

Here's what some known entries look like.
CC(=O)c1ccc(N2CCOCC2)cc1O :: 96.9
Cc1ccc(S(=O)(=O)/C=C/C#N)cc1 :: 106
CCOC(=O)c1c(C)[nH]c(/C=C2\C(=O)Nc3ccccc32)c1C :: 64.5

Proceeding to the next compound to report its residual activity.
Input Cc1[nH]c(/C=C2\C(=O)Nc3ccc(S(=O)(=O)N(C)c4cccc(Cl)c4)cc32)c(C)c1C(=O)N1CCN(C)CC1 . Output residual activity: 40.9

###

molecular target: NTRK2 (human); experiment: radiometric filter-binding kinase assay, Kinase HotSpot; details: compound 0.5 µM; ATP 10 µM
Classify by measured residual activity: yes if it is equal to or exceeds 80%, no if it is smaller.

For this molecule, is measured residual activity 80% or higher? CCC(=O)Nc1ccc2ncnc(Nc3cccc(Br)c3)c2c1
no

For this molecule, is measured residual activity 80% or higher? CC#CC(=O)Nc1cc2c(Nc3ccc(F)c(Cl)c3)ncnc2cn1
yes

For this molecule, is measured residual activity 80% or higher? O=C1NC(=O)c2c1c1c3ccccc3n3c1c1c2c2ccccc2n1C1CCC3O1
no

###

target: STK16 (human); test: radiometric filter-binding kinase assay, Kinase HotSpot; settings: compound 0.5 µM; ATP 10 µM
observation type: residual activity (%)
Report the figure in % without appending any unit label.

Cc1ccc(Nc2nccc(N(C)c3ccc4c(C)n(C)nc4c3)n2)cc1S(N)(=O)=O :: 43.8

Input CCC(=O)Nc1ccc2ncnc(Nc3cccc(Br)c3)c2c1 . Output residual activity: 99.6

Input CO[C@H]1CC2CC[C@@H](C)[C@@](O)(O2)C(=O)C(=O)N2CCCC[C@H]2C(=O)OC([C@H](C)C[C@@H]2CC[C@@H](O)[C@H](OC)C2)CC(=O)[C@H](C)/C=C(\C)[C@@H](O)[C@@H](OC)C(=O)[C@H](C)C[C@H](C)/C=C/C=C/C=C/1C (stereo partly specified) . Output residual activity: 112

Input CCN(CC)CCNC(=O)c1c(C)[nH]c(/C=C2\C(=O)Nc3ccc(Cl)cc32)c1C . Output residual activity: 72.9

Input CCCC(=O)Oc1ccc2[nH]c(C(=O)c3cc4ccccc4[nH]3)cc2c1 . Output residual activity: 100

Input O=C1Nc2ccc(Cl)cc2/C1=C/c1cc(Cl)c(O)c(Cl)c1 . Output residual activity: 90.2

Input Nc1ncnc2c1c(-c1ccc(Oc3ccccc3)cc1)cn2C1CCCC1 . Output residual activity: 90.7

Input c1ccc(-c2n[nH]c3c2oc2ccccc23)cc1 . Output residual activity: 89.1

Input COc1ccc(COc2ccc(Cc3cnc(N)nc3N)cc2OC)cc1 . Output residual activity: 106

Input N#CC(C#N)=C(N)/C(C#N)=C/c1ccc(O)cc1 . Output residual activity: 109

###

Each entry below lists one item and its recorded residual activity value.
biological target: EPHB3 (human) (UniProt P54753); experiment: radiometric filter-binding kinase assay, Kinase HotSpot; conditions: compound 0.5 µM; ATP 10 µM
Sequence (P54753 whole entry, looked up): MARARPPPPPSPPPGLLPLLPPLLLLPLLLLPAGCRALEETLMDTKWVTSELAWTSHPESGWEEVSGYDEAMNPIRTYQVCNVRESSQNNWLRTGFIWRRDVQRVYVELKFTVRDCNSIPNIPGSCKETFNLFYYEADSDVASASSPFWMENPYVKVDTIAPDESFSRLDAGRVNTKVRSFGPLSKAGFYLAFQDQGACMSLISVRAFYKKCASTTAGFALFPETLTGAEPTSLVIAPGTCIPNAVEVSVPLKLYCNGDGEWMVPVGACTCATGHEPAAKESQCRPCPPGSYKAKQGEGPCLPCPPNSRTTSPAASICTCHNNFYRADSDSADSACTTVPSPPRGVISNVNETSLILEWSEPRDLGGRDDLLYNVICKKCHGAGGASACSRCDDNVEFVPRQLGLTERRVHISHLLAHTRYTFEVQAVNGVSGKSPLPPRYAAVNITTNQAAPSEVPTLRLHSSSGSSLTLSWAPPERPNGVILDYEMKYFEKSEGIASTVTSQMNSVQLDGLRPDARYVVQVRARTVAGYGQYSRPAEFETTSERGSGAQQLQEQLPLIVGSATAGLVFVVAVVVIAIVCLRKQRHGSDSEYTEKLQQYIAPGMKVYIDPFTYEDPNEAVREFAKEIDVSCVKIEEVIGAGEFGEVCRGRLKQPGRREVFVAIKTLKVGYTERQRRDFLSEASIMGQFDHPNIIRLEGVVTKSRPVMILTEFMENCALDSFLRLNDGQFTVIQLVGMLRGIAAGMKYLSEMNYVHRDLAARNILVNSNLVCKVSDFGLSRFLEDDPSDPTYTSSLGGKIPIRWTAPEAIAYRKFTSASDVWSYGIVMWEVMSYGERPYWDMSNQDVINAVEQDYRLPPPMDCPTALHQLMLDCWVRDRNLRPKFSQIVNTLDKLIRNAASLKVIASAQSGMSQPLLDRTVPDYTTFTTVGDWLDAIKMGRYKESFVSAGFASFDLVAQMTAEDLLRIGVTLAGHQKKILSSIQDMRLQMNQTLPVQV
Report the figure in % without appending any unit label.

Here's what some known entries look like.
CC(C)N(CCC(=O)c1ccc2ccccc2c1)Cc1ccccc1 :: 88.5
Nc1ncnc2[nH]nc(Nc3ccc(F)cc3)c12 :: 87.7
O=C1NC(=O)/C(=C/c2ccc3c(c2)OC(F)(F)O3)S1 :: 93.1
CC(=O)c1ccc(N2CCOCC2)cc1O :: 92.3
Cc1ccc(Nc2nccc(N(C)c3ccc4c(C)n(C)nc4c3)n2)cc1S(N)(=O)=O :: 71.7

Input O=c1cc(N2CCOCC2)oc2c1ccc1ccccc12 . Output residual activity: 90

Input O=C1NC(=O)C(c2cn(CCCn3ccnc3)c3ccccc23)=C1Nc1ccccc1 . Output residual activity: 99.7

Input Cc1[nH]c(/C=C2\C(=O)Nc3ccc(S(=O)(=O)N(C)c4cccc(Cl)c4)cc32)c(C)c1C(=O)N1CCN(C)CC1 . Output residual activity: 98.6

Input CCCC(=O)Oc1ccc2[nH]c(C(=O)c3cc4ccccc4[nH]3)cc2c1 . Output residual activity: 94.2
